EXPERIMENTAL_DETAILS: absolute recovery over mixed-bed multilayer solid-phase extraction; higher = better recovery
STUDY_CONDITIONS: nanopure water; enrichment method: SPE
Give measured absolute recovery for each item. Keep answers brief.
Numbers only, in %.

Example entries and their recorded answers appear below.
MOLECULE: O=C([O-])c1ccccc1Nc1cccc(C(F)(F)F)c1 [Flufenamic-Acid]
UNIT_SYMBOL: %
absolute recovery: 130
//
MOLECULE: CC12C=CC(=O)C=C1CCC1C2C(=O)CC2(C)C1CCC2(O)C(=O)CO (stereo not given) [Prednisone]
UNIT_SYMBOL: %
absolute recovery: 81
//
MOLECULE: CCNc1nc(Cl)nc(NC(C)C)n1 [Atrazin]
UNIT_SYMBOL: %
absolute recovery: 96.7

Provide the reported absolute recovery of each entry below, same order.
1. NC(=O)c1c(Cl)cccc1Cl [2-6-Dichlorbenzamid]
2. CCNc1nc(NCC)nc(OC)n1 [Simeton]
3. CCCCOc1cc(C(=O)NCC[NH+](CC)CC)c2ccccc2n1 [Dibucaine]
4. O=[N+]([O-])N=C1NCCN1Cc1ccc(Cl)nc1 [Imidacloprid]
5. Cc1nnc(-c2ccccc2)c(=O)n1N [Metamitron]

## Result
1. 93.7
2. 77.1
3. 99.8
4. 97.8
5. 97.1

Provide the reported absolute recovery of each entry below, same order.
1. COCCN(C(=O)CCl)c1c(C)cccc1C [Dimethachlor]
2. COCc1cnc(C2=NC(C)(C(C)C)C(=O)N2)c(C(=O)[O-])c1 (stereo not given) [Imazamox]

## Result
1: 93; 2: 92.3

* * *

Give measured absolute recovery for each item. Keep answers brief.
EXPERIMENTAL_DETAILS: absolute recovery over mixed-bed multilayer solid-phase extraction; higher = better recovery
STUDY_CONDITIONS: wastewater influent; enrichment method: SPE
One number for each entry, in %.

MOLECULE: Oc1ccc(C=Cc2cc(O)cc(O)c2)cc1
REPORTED: 68.9

MOLECULE: Cn1cc(C(=O)Nc2ccc(F)cc2-c2ccc(Cl)c(Cl)c2)c(C(F)F)n1
REPORTED: 76.1

MOLECULE: C[NH2+]C(CC(C)C)C(=O)NC1C(=O)NC(CC(N)=O)C(=O)NC2C(=O)NC3C(=O)NC(C(=O)NC(C(=O)[O-])c4cc(O)cc(O)c4-c4cc3ccc4O)C(O)c3ccc(c(Cl)c3)Oc3cc2cc(c3OC2OC(CO)C(O)C(O)C2OC2CC(C)([NH3+])C(O)C(C)O2)Oc2ccc(cc2Cl)C1O (stereo not given)
REPORTED: 92.8

MOLECULE: [NH3+]C12CC3CC(CC(C3)C1)C2
REPORTED: 87.2

MOLECULE: COC(=O)[N-]S(=O)(=O)c1ccc(N)cc1
REPORTED: 43.9

Provide the reported absolute recovery of each entry below, same order.
1. O=C([O-])c1cc(Br)c([O-])c(Br)c1 [3-5-Dibromo-4-hydroxybenzoic-acid]
2. COCC(C)N(C(=O)CCl)c1c(C)csc1C (stereo not given)
3. NC(=O)c1cn(Cc2c(F)cccc2F)nn1
4. Cc1ncc([N+](=O)[O-])n1CCO
5. COc1ccc(NC(=O)N(C)C)cc1Cl

## Result
[94.4, 92.1, 92.3, 95.9, 129]

* * *

EXPERIMENTAL_DETAILS: absolute recovery over mixed-bed multilayer solid-phase extraction; higher = better recovery
STUDY_CONDITIONS: wastewater effluent; enrichment method: SPE
Kindly return 1 if reported absolute recovery is no lower than 90%; return -1 if it is lower.

Before answering, review these 3 worked examples.
COMPOUND: CCN(CC)C(=O)c1cccc(C)c1
CATEGORY_LABEL: -1
//
COMPOUND: COc1ccc(C(C[NH+](C)C)C2(O)CCCCC2)cc1 (configuration not stated)
CATEGORY_LABEL: 1
//
COMPOUND: Fc1ccc(C2(Cn3cncn3)OC2c2ccccc2Cl)cc1 (configuration not stated)
CATEGORY_LABEL: 1

Below: the item to evaluate.
## Task Please indicate if the recorded absolute recovery for `c1ccc2[nH]c(-c3cscn3)nc2c1` meets or exceeds 90%.
## Result -1

* * *

EXPERIMENTAL_DETAILS: absolute recovery over vacuum-assisted evaporative concentration; higher = better recovery
STUDY_CONDITIONS: wastewater influent; enrichment method: VEC
Give measured absolute recovery for each item. Keep answers brief.
Answers are plain numbers, in %.

Example entries and their recorded answers appear below.
MOLECULE: O=C1CC(C(=O)[O-])CC(=O)C1=C([O-])C1CC1 (configuration not stated) [Trinexapac (free acid)]
absolute recovery / %: 93
//
MOLECULE: CC(C)c1ccc(NC(=O)N(C)C)cc1 [Isoproturon]
absolute recovery / %: 103
//
MOLECULE: [NH3+]C(Cc1cc(I)c(O)c(I)c1)C(=O)[O-] [3-5-Diiodo-L-tyrosine]
absolute recovery / %: 96.4
//
MOLECULE: CC[NH+](CC)CC#CCOC(=O)C(O)(c1ccccc1)C1CCCCC1 (configuration not stated) [Oxybutynin]
absolute recovery / %: 136
//
MOLECULE: CC(C)c1ccc(NC(N)=O)cc1 [Isoproturon-didemethyl (=1-(4-Isoprophenyl)urea)]
absolute recovery / %: 103

Provide the reported absolute recovery of each entry below, same order.
1. Cc1cccc(C)c1NC(=O)C1CCCC[NH+]1C (configuration not stated) [Mepivacaine]
2. Cn1sccc1=O [2-Methyl-4-isothiazolin-3-one]

## Result
[103, 27]

* * *

Give measured absolute recovery for each item. Keep answers brief.
EXPERIMENTAL_DETAILS: absolute recovery over mixed-bed multilayer solid-phase extraction; higher = better recovery
STUDY_CONDITIONS: wastewater effluent; enrichment method: SPE
Numbers only, in %.

Example entries and their recorded answers appear below.
COMPOUND: CCCOc1nc2ccc(I)cc2c(=O)n1CCC [Proquinazid]
MEASURED_PARAMETER: absolute recovery
REPORTED: 78
//
COMPOUND: COCCN(C(=O)CS(=O)(=O)[O-])c1c(C)cccc1C [Dimethachlor-ESA]
MEASURED_PARAMETER: absolute recovery
REPORTED: 102
//
COMPOUND: CC(C)c1nc(CN(C)C(=O)NC(C(=O)NC(Cc2ccccc2)CC(O)C(Cc2ccccc2)NC(=O)OCc2cncs2)C(C)C)cs1 (stereo not given) [Ritonavir]
MEASURED_PARAMETER: absolute recovery
REPORTED: 86.9
//
COMPOUND: CC(=O)OCC(=O)C1(O)C(C)CC2C3CCC4=CC(=O)C=CC4(C)C3(F)C(O)CC21C (stereo not given) [Betamethasone 21-acetate C]
MEASURED_PARAMETER: absolute recovery
REPORTED: 89

Now consider the entry below.
## Task Look up absolute recovery: COc1cccc(C2(O)CCCCC2C[N+](C)(C)[O-])c1 (stereo not given) [Tramadol-N-oxide]
## Result 90.2

* * *

EXPERIMENTAL_DETAILS: LC retention time (Atlantis T3, 5-95% MeOH gradient, 0.1% formic acid); higher = more retained / less polar
Kindly return fulfilled if reported LC retention time is no lower than 10 min; return not fulfilled if it is lower.

Before answering, review these 5 worked examples.
MOLECULE: Nc1nc(=O)c2ncn(CCC(CO)CO)c2[nH]1
CATEGORY_LABEL: not fulfilled

MOLECULE: COC(=O)c1ccc(I)cc1S(=O)(=O)[N-]C(=O)Nc1nc(C)nc(OC)n1
CATEGORY_LABEL: fulfilled

MOLECULE: O=C(NCCc1ncc(C(F)(F)F)cc1Cl)c1ccccc1C(F)(F)F
CATEGORY_LABEL: fulfilled

MOLECULE: O=C(NCCN1CCOCC1)c1ccc(Cl)cc1
CATEGORY_LABEL: fulfilled

MOLECULE: CCC(CO)NCC[NH2+]C(CC)CO (centres undefined)
CATEGORY_LABEL: not fulfilled

## Task Please indicate if the recorded LC retention time for `O=C([O-])C(F)(F)C(F)(F)C(F)(F)C(F)(F)C(F)(F)C(F)(F)C(F)(F)F` meets or exceeds 10 min.
## Result fulfilled

## Task Please indicate if the recorded LC retention time for C=CC(=O)OCCOC(=O)CCC(=O)[O-] [Mono(2-acryloyloxyethyl)-succinate] meets or exceeds 10 min.
## Result fulfilled

## Task Please indicate if the recorded LC retention time for `Cn1sccc1=O` meets or exceeds 10 min.
## Result not fulfilled

## Task Please indicate if the recorded LC retention time for `O=c1[nH]sc2ccccc12` meets or exceeds 10 min.
## Result fulfilled

* * *

Give measured absolute recovery for each item. Keep answers brief.
EXPERIMENTAL_DETAILS: absolute recovery over mixed-bed multilayer solid-phase extraction; higher = better recovery
STUDY_CONDITIONS: wastewater effluent; enrichment method: SPE
One number for each entry, in %.

Example entries and their recorded answers appear below.
COMPOUND: COC(=O)c1cccc(C)c1S(=O)(=O)[N-]C(=O)Nc1nc(OCC(F)(F)F)nc(N(C)C)n1
absolute recovery / %: 93.1
//
COMPOUND: Cc1nc2n(c(=O)c1CC[NH+]1CCC(c3noc4cc(F)ccc34)CC1)CCCC2
absolute recovery / %: 93.3
//
COMPOUND: Cc1cccc(Nc2ccccc2C(=O)[O-])c1C
absolute recovery / %: 93.3

## Task Look up absolute recovery: CC12C=CC(=O)C=C1CCC1C2C(=O)CC2(C)C1CCC2(O)C(=O)CO (centres undefined)
## Result 76.4

Every entry's value here was drawn from the supplement of paper PMC6470124.
